Data provenance is BindingDB's records for patent US20250161319.

target: Mitogen-activated protein kinase kinase kinase kinase 1 (Homo sapiens, UniProt Q92918); test: Tests of Compounds for Inhibiting HPK1 Kinase Activity In Vitro
Sequence (Q92918 whole entry): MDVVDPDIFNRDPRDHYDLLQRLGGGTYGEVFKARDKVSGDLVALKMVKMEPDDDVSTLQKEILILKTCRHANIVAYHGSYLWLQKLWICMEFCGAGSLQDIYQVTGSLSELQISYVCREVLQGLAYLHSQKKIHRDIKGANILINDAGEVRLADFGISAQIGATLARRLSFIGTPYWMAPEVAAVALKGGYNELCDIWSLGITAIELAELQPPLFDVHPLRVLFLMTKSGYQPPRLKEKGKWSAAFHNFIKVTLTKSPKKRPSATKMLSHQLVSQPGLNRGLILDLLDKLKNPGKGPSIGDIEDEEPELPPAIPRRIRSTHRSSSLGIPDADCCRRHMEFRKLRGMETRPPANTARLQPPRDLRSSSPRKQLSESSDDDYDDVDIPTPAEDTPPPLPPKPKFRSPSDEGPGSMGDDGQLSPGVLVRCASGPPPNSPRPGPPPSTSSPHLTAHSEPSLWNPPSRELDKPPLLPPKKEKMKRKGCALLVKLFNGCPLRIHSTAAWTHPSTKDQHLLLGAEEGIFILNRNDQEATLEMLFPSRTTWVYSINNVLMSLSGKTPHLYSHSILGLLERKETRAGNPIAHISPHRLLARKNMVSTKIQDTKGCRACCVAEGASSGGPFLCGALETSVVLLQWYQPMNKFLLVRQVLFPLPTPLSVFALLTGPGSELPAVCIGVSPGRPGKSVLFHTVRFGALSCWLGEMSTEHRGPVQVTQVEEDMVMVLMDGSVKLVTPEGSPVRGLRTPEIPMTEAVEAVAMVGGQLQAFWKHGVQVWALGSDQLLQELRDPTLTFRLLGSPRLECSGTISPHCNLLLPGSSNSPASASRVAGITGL
measured.metric: IC50

Some compounds with recorded IC50:
CN1CCN(c2ccc(C(=O)Nc3cc4cc(-c5cccn5C)c(F)c(N)c4cn3)cc2)CC1 [US20250161319, Example 7]    < 300 nM
CCn1cccc1-c1cc2cc(NC(=O)C3CCC(F)CC3)ncc2c(N)c1F (configuration not stated) [US20250161319, Example 9]    < 300 nM
Cn1cccc1-c1cc2cc(NC(=O)C3CC3F)ncc2c(F)c1C#N (configuration not stated) [US20250161319, Example 10]    > 300 nM

IC50 in this record for Cn1cccc1-c1cc2cc(NC(=O)c3ccc(N4CCNCC4)cc3)ncc2c(N)c1F [US20250161319, Example 6] : < 100 nM

IC50 in this record for C=Cn1cccc1-c1cc2cc(NC(=O)C3CC3F)ncc2c(N)c1F (configuration not stated) [US20250161319, Example 4] : < 50 nM

IC50 in this record for CCn1cccc1-c1cc2cc(NC(=O)C3CC3F)ncc2c(N)c1F (configuration not stated) [US20250161319, Example 2] : < 50 nM

IC50 in this record for CC(C)n1cccc1-c1cc2cc(NC(=O)C3CC3F)ncc2c(N)c1F (configuration not stated) [US20250161319, Example 3] : < 50 nM
